biological target: CD28 (Homo sapiens, UniProt P10747); test: Flow binding to Jurkat/IL2 reporter cells (CD28); parameters: host or cells: Jurkat cells expressing an IL-2-luciferase reporter; conditions: Table E19; Jurkats (CD28); 33.3 nM
MEASUREMENT LABEL: CD28 MFI at 33.3 nM
Response field accepts a number only; no unit should be typed.

*Q* # CD28 MFI at 33.3 nM lookup, item E35D/N48K/V68M (protein) VIHVTKEVKEVATLSCGHNVSVEELAQTRIYWQKDKKMVLTMMSGDMKIWPEYKNRTIFDITNNLSIMILALRPSDEGTYECVVLKYEKDAFKREHLAEVTLSVKAD
*A* 642

*Q* May I ask what CD28 MFI at 33.3 nM has been recorded for E35D/D46V/L85Q: variant CD80 IgV-Fc, IgV SEQ ID NO:203 (protein) VIHVTKEVKEVATLSCGHNVSVEELAQTRIYWQKDKKMVLTMMSGVMNIWPEYKNRTIFDITNNLSIVILALRPSDEGTYECVVQKYEKDAFKREHLAEVTLSVKAD ?
*A* 196

*Q* Field request: CD28 MFI at 33.3 nM | item: E35D/M47L/V68M/L85Q (protein) VIHVTKEVKEVATLSCGHNVSVEELAQTRIYWQKDKKMVLTMMSGDLNIWPEYKNRTIFDITNNLSIMILALRPSDEGTYECVVQKYEKDAFKREHLAEVTLSVKAD
*A* 159

*Q* Query (molecule): N48K/K89N (protein) VIHVTKEVKEVATLSCGHNVSVEELAQTRIYWQKEKKMVLTMMSGDMKIWPEYKNRTIFDITNNLSIVILALRPSDEGTYECVVLKYENDAFKREHLAEVTLSVKAD ; field requested: CD28 MFI at 33.3 nM
*A* 170

*Q* Recorded CD28 MFI at 33.3 nM for E35D/M47V/N48K/V68M/L85Q (protein) VIHVTKEVKEVATLSCGHNVSVEELAQTRIYWQKDKKMVLTMMSGDVKIWPEYKNRTIFDITNNLSIMILALRPSDEGTYECVVQKYEKDAFKREHLAEVTLSVKAD , please?
*A* 118

*Q* Value lookup for CD28 MFI at 33.3 nM; key = M47V/K89N (protein) VIHVTKEVKEVATLSCGHNVSVEELAQTRIYWQKEKKMVLTMMSGDVNIWPEYKNRTIFDITNNLSIVILALRPSDEGTYECVVLKYENDAFKREHLAEVTLSVKAD
*A* 197

*Q* // CD28 MFI at 33.3 nM lookup, key: M47L (protein) VIHVTKEVKEVATLSCGHNVSVEELAQTRIYWQKEKKMVLTMMSGDLNIWPEYKNRTIFDITNNLSIVILALRPSDEGTYECVVLKYEKDAFKREHLAEVTLSVKAD
*A* 309

*Q* Query (molecule): D46V/M47L/V68M (protein) VIHVTKEVKEVATLSCGHNVSVEELAQTRIYWQKEKKMVLTMMSGVLNIWPEYKNRTIFDITNNLSIMILALRPSDEGTYECVVLKYEKDAFKREHLAEVTLSVKAD ; field requested: CD28 MFI at 33.3 nM
*A* 2183

*Q* Which CD28 MFI at 33.3 nM reading was recorded for the molecule E35D/M47L/L85Q: variant CD80 IgV-Fc, IgV SEQ ID NO:418 (protein) VIHVTKEVKEVATLSCGHNVSVEELAQTRIYWQKDKKMVLTMMSGDLNIWPEYKNRTIFDITNNLSIVILALRPSDEGTYECVVQKYEKDAFKREHLAEVTLSVKAD ?
*A* 46.3

*Q* Can you look up the measured CD28 MFI at 33.3 nM of M47V/V68M (protein) VIHVTKEVKEVATLSCGHNVSVEELAQTRIYWQKEKKMVLTMMSGDVNIWPEYKNRTIFDITNNLSIMILALRPSDEGTYECVVLKYEKDAFKREHLAEVTLSVKAD for me?
*A* 328

*Q* // returns reported CD28 MFI at 33.3 nM for input M47V/V68M/K89N (protein) VIHVTKEVKEVATLSCGHNVSVEELAQTRIYWQKEKKMVLTMMSGDVNIWPEYKNRTIFDITNNLSIMILALRPSDEGTYECVVLKYENDAFKREHLAEVTLSVKAD
*A* 1324

*Q* Requested read-out: CD28 MFI at 33.3 nM. Entry: E35D/M47V/N48K/V68M/K89N: variant CD80 IgV-Fc, IgV SEQ ID NO:465 (protein) VIHVTKEVKEVATLSCGHNVSVEELAQTRIYWQKDKKMVLTMMSGDVKIWPEYKNRTIFDITNNLSIMILALRPSDEGTYECVVLKYENDAFKREHLAEVTLSVKAD
*A* 1348

*Q* Look at this molecule and give its reported CD28 MFI at 33.3 nM. E35D/N48K (protein) VIHVTKEVKEVATLSCGHNVSVEELAQTRIYWQKDKKMVLTMMSGDMKIWPEYKNRTIFDITNNLSIVILALRPSDEGTYECVVLKYEKDAFKREHLAEVTLSVKAD
*A* 194

*Q* CD28 MFI at 33.3 nM for M47V/N48K (protein) VIHVTKEVKEVATLSCGHNVSVEELAQTRIYWQKEKKMVLTMMSGDVKIWPEYKNRTIFDITNNLSIVILALRPSDEGTYECVVLKYEKDAFKREHLAEVTLSVKAD ?
*A* 413

*Q* For the molecule E35D/M47L/V68M (protein) VIHVTKEVKEVATLSCGHNVSVEELAQTRIYWQKDKKMVLTMMSGDLNIWPEYKNRTIFDITNNLSIMILALRPSDEGTYECVVLKYEKDAFKREHLAEVTLSVKAD , what CD28 MFI at 33.3 nM is on record?
*A* 1243
